Entries and their measured Kcat follow.
Test: Standard protocol for determination of kcat and KM (continuous spectrophotometric assay, Acetyl CoA hydrolysis at 235 nm)
Assay type: biochemical
Details: purified protein; about 23° C.; 20 mM HEPES pH 6.8, 10% ethylene glycol, 0.2 mM acetyl CoA
Experimental: KM was calculated from the initial reaction rates obtained from concentrations of glyphosate ranging from 0.125 to 10 mM, using the Lineweaver-Burke transformation of the Michaelis-Menten equation. kcat/KM was determined by dividing the value determined for kcat by the value determined for KM. Using this methodology, kinetic parameters for a number of GAT polypeptides exemplified herein were determined. […]
Put down the number, then write its unit next to it.

[Q] Entry under review: SEQ ID NO: 500: GAT polypeptide (protein, 6_1F1, GAT polypeptide) MLEVKPINAEDTYELRHKILRPNQPLEVCMYETDLLRGAFHLGGFYRGKLISIASFHQAEHSELQGQKQYQLRGMATLEGYRDQKAGSSLIRHAEQILRKRGADMLWCNARTSASGYYKKLGFSEQGEVFETPPVGPHILMYKRLT . Reported Kcat?
[A] 1.164 s⁻¹

[Q] Entry under review: SEQ ID NO: 474: GAT polypeptide (protein, 1_2F8, GAT polypeptide) MLEVKPINAEDTYELRHRILRPNQPLEACMYETDLLRGSFHLGGFYRGKLISIASFHQAEHSELEGQKQYQLRGMATLEGYRDQKAGSSLIRHAEEILRKRGADMLWCNARTTAAGYYKKLGFSEQGEIYDTPPVGPHILMYKKLT . Reported Kcat?
[A] 2.68 s⁻¹

[Q] Entry under review: SEQ ID NO: 306: GAT polypeptide (protein, 14_10C9, GAT polypeptide) MIEVKPINAEDTYEIRHRILRPNQPLEACKYETDLLRGAFHLGGYYRGKLISIASFHQAEHPELEGQKQYQLRGMATLEEYREQKAGSTLIRHAEELLRKKGADLLWCNARTSASGYYKKLGFSEQGEVYDTPPVGPHILMYKKLT . Reported Kcat?
[A] 2.12 s⁻¹

[Q] Entry under review: SEQ ID NO: 387: GAT polypeptide (protein, X: residue not identified in the source; ends and bridges not checked, GAT polypeptide) MIEVKPINAEDTYEIRXRILRPNQPLEACMYETDLLGGTFHLGGYYRGKLISIASFHQAEHPELEGQKQYQLRGMATLEGYREQKAGSTLIRHAEELLRKKGADLLWCNARTSASGYYKKLGFSEQGGVYDIPPVGPHILMYKKLT . Reported Kcat?
[A] 0.717 s⁻¹

---
[Q] Entry under review: SEQ ID NO: 289: GAT polypeptide (protein, 12_5C10, GAT polypeptide) MIEVKPINAEDTYEIRHRILRPNQPLEACKYETDLLGGTFHLGGYYRGKLISIASFHQAEHPELEGQKQYQLRGMATLEEYREQKAGSTLIRHAEELLRKKGADLLWCNARTSASGYYKKLGFSEQGEVYDAPPTGPHILMYKKLT . Reported Kcat?
[A] 1.49 s⁻¹
